# assay.protocol: yeast display, Sf9 membrane polyspecificity reagent, FACS + sequencing; frameworks hold sequencing errors

# polymer.sequence, polyreactivity (PSR sort gate)
data = [
    ("QVQLVESGGGLVQAGGSLRLCCAASGFILLDYAKGWYRQAPGNERELVAAISWSGARTYYADSVKRRFTISRDNAKNTVYLQMNSLKPEDTAVYYCATRYRWTPYDYWGQGTQVTVSS", "low polyreactivity"),
    ("QVQLVESDGGLVQAGGSHPLSSAASGRIIYRYTMGWYRQAPGKERELVAAIRYRTSSTYYADSVKGRFTISRDNAKNTVYLQMNSLKPEDTAVYYCAAYDGLRPHRMDYWGQGTQVTVSS", "low polyreactivity"),
]
